# Test system: strains TA98
# Format: cell-based
# Measurement Conditions: 20 μg/plate, with S-9
Property Label: Ames test: ratio of number of colonies to control

// solved cases for Ames test: ratio of number of colonies to control follow
Compound: Nc1ccc(N=Nc2ccc(S(=O)(=O)c3ccc(N=Nc4c(S(=O)(=O)O)cc5cc(S(=O)(=O)O)c(N=Nc6ccccc6)c(O)c5c4N)cc3)cc2)c(O)c1 [compound 2, reference compound]
Assayed System: strains TA98
Obs Value: 5.26

Compound: Nc1ccc2c(O)c(N=Nc3ccccc3)c(S(=O)(=O)O)cc2c1N=Nc1ccc(Oc2ccc(Oc3ccc(N=Nc4ccc(O)cc4O)cc3)cc2)cc1
Assayed System: strains TA98
Obs Value: 1.25

Compound: Nc1c(N=Nc2ccc(Oc3ccc(Oc4ccc(N=Nc5ccc(O)cc5O)cc4)cc3)cc2)c(S(=O)(=O)O)cc2cc(S(=O)(=O)O)c(N=Nc3ccccc3)c(O)c12
Assayed System: strains TA98
Obs Value: 0.93

Compound: CCC(C)c1ccc(N=Nc2c(S(=O)(=O)O)cc3cc(S(=O)(=O)O)c(N=Nc4ccc(Oc5ccc(Oc6ccc(N=Nc7ccc(O)cc7O)cc6)cc5)cc4)c(N)c3c2O)cc1 (centres unmarked)
Assayed System: strains TA98
Obs Value: 1.01

Compound: Cc1cc(-c2ccc(N=Nc3c(S(=O)(=O)O)cc4cc(S(=O)(=O)O)c(N=Nc5ccc(S(=O)(=O)O)cc5)c(O)c4c3N)c(C)c2)ccc1N=Nc1ccc(O)cc1O [compound 3, reference compound]
Assayed System: strains TA98
Obs Value: 1.20

Compound: Nc1c(N=Nc2ccc(Oc3cccc(Oc4ccc(N=Nc5ccc(O)cc5O)cc4)c3)cc2)c(S(=O)(=O)O)cc2cc(S(=O)(=O)O)c(N=Nc3ccccc3)c(O)c12
Assayed System: strains TA98
Obs Value: 1.34

Compound: CCC(C)c1ccc(N=Nc2c(S(=O)(=O)O)cc3cc(S(=O)(=O)O)c(N=Nc4ccc(Oc5cccc(Oc6ccc(N=Nc7ccc(O)cc7O)cc6)c5)cc4)c(N)c3c2O)cc1 (centres unmarked)
Assayed System: strains TA98
Obs Value: 1.32

Compound: Cc1ccccc1N=Nc1c(S(=O)(=O)O)cc2cc(S(=O)(=O)O)c(N=Nc3ccc(Oc4ccc(Oc5ccc(N=Nc6ccc(O)cc6O)cc5)cc4)cc3)c(N)c2c1O
Assayed System: strains TA98
Obs Value: 0.94

Q. Give Ames test: ratio of number of colonies to control for the following compound: `Nc1ccc(N=Nc2ccc(Oc3cccc(Oc4ccc(N=Nc5c(S(=O)(=O)O)cc6cc(S(=O)(=O)O)c(N=Nc7ccccc7)c(O)c6c5N)cc4)c3)cc2)c(O)c1`
A. 1.13

Q. Specify Ames test: ratio of number of colonies to control for `Nc1c(N=Nc2ccc(Oc3ccc(Oc4ccc(N=Nc5ccc(O)cc5O)cc4)cc3)cc2)cc(S(=O)(=O)O)c2ccc(N=Nc3ccccc3)c(O)c12` and stop.
A. 0.91

Q. Return value of Ames test: ratio of number of colonies to control for input `Nc1ccc(N=Nc2ccc(Oc3cccc(Oc4ccc(N=Nc5cc(S(=O)(=O)O)c6cc(S(=O)(=O)O)c(N=Nc7ccccc7)c(O)c6c5N)cc4)c3)cc2)c(O)c1` , no commentary.
A. 1.05

====

# System: strains TA98
# Type: cell-based
# Measurement Conditions: 78 μg/plate, with S-9
We begin with a simple list: items and their reported Ames test: ratio of number of colonies to control.
Form rule: numeric answer, no unit written next to it.

These recorded examples may help you get a feel for the data.
Molecular String: Cc1ccccc1N=Nc1c(S(=O)(=O)O)cc2cc(S(=O)(=O)O)c(N=Nc3ccc(Oc4ccc(Oc5ccc(N=Nc6ccc(O)cc6O)cc5)cc4)cc3)c(N)c2c1O
Obs Value: 0.89
//
Molecular String: Nc1ccc(N=Nc2ccc(Oc3cccc(Oc4ccc(N=Nc5cc(S(=O)(=O)O)c6cc(S(=O)(=O)O)c(N=Nc7ccccc7)c(O)c6c5N)cc4)c3)cc2)c(O)c1
Obs Value: 1.00

Could you now consider this next compound?
Q. Please look at `Nc1ccc(N=Nc2ccc(Oc3cccc(Oc4ccc(N=Nc5c(S(=O)(=O)O)cc6cc(S(=O)(=O)O)c(N=Nc7ccccc7)c(O)c6c5N)cc4)c3)cc2)c(O)c1` and tell me its recorded Ames test: ratio of number of colonies to control on strains TA98.
A. 0.94

====

# System: strains TA98
# Type: cell-based
# Measurement Conditions: 1250 μg/plate, with S-9
Entries and their measured Ames test: ratio of number of colonies to control follow.
Give the figure only, with no unit attached.

Example results:
Compound: Nc1ccc(N=Nc2ccc(Oc3cccc(Oc4ccc(N=Nc5c(S(=O)(=O)O)cc6cc(S(=O)(=O)O)c(N=Nc7ccccc7)c(O)c6c5N)cc4)c3)cc2)c(O)c1
Obs Value: 0.53

Compound: Cc1ccccc1N=Nc1c(S(=O)(=O)O)cc2cc(S(=O)(=O)O)c(N=Nc3ccc(Oc4ccc(Oc5ccc(N=Nc6ccc(O)cc6O)cc5)cc4)cc3)c(N)c2c1O
Obs Value: 1.05

Compound: Nc1ccc(N=Nc2ccc(Oc3ccc(Oc4ccc(N=Nc5c(S(=O)(=O)O)cc6cc(S(=O)(=O)O)c(N=Nc7ccc(S(=O)(=O)O)cc7)c(O)c6c5N)cc4)cc3)cc2)c(O)c1
Obs Value: 0.93

Compound: Nc1ccc(N=Nc2ccc(Oc3ccc(Oc4ccc(N=Nc5c(S(=O)(=O)O)cc6cc(S(=O)(=O)O)c(N=Nc7ccccc7)c(O)c6c5N)cc4)cc3)cc2)c(O)c1
Obs Value: 0.88

Here's the next entry for you.
Q. Read the entry Cc1cc(-c2ccc(N=Nc3c(S(=O)(=O)O)cc4cc(S(=O)(=O)O)c(N=Nc5ccccc5)c(O)c4c3N)c(C)c2)ccc1N=Nc1ccc(N)cc1N [compound 1, reference compound] and write its reported Ames test: ratio of number of colonies to control.
A. 1.50

====

# System: strains TA98
# Format: cell-based
# Measurement Conditions: 78 μg/plate, with S-9
Reported Ames test: ratio of number of colonies to control is given for each of the following compounds.

Compound: Nc1ccc(N=Nc2ccc(Oc3ccc(Oc4ccc(N=Nc5c(S(=O)(=O)O)cc6cc(S(=O)(=O)O)c(N=Nc7ccccc7)c(O)c6c5N)cc4)cc3)cc2)c(O)c1
Obs Value: 1.23

Q. Give the reported value of Ames test: ratio of number of colonies to control for this record: Nc1ccc(N=Nc2ccc(S(=O)(=O)c3ccc(N=Nc4c(S(=O)(=O)O)cc5cc(S(=O)(=O)O)c(N=Nc6ccccc6)c(O)c5c4N)cc3)cc2)c(O)c1 [compound 2, reference compound]
A. 26.3

Q. In one line, give reported Ames test: ratio of number of colonies to control of the entry CCC(C)c1ccc(N=Nc2c(S(=O)(=O)O)cc3cc(S(=O)(=O)O)c(N=Nc4ccc(Oc5ccc(Oc6ccc(N=Nc7ccc(O)cc7O)cc6)cc5)cc4)c(N)c3c2O)cc1 (centres unmarked) .
A. 1.00

Q. Identify Ames test: ratio of number of colonies to control associated with the compound `Nc1c(N=Nc2ccc(Oc3ccc(Oc4ccc(N=Nc5ccc(O)cc5O)cc4)cc3)cc2)cc(S(=O)(=O)O)c2ccc(N=Nc3ccccc3)c(O)c12`
A. 0.92

Q. Complete the entry with Ames test: ratio of number of colonies to control for `Nc1ccc(N=Nc2ccc(Oc3ccc(Oc4ccc(N=Nc5c(S(=O)(=O)O)cc6cc(S(=O)(=O)O)c(N=Nc7ccc(S(=O)(=O)O)cc7)c(O)c6c5N)cc4)cc3)cc2)c(O)c1`
A. 0.92

====

# System: strains TA98
# Format: cell-based
# Measurement Conditions: 1250 μg/plate, without S-9
Property Label: Ames test: ratio of number of colonies to control
Returns: the value as a bare number; no unit string appended.

Molecule: Nc1c(N=Nc2ccc(Oc3ccc(Oc4ccc(N=Nc5ccc(O)cc5O)cc4)cc3)cc2)cc(S(=O)(=O)O)c2ccc(N=Nc3ccccc3)c(O)c12 [Ex. 10]
Obs Value: 1.02
//
Molecule: Nc1ccc(N=Nc2ccc(Oc3cccc(Oc4ccc(N=Nc5c(S(=O)(=O)O)cc6cc(S(=O)(=O)O)c(N=Nc7ccccc7)c(O)c6c5N)cc4)c3)cc2)c(O)c1 [Ex. 1]
Obs Value: 0.76

Q. Quick one: give measured Ames test: ratio of number of colonies to control for Nc1ccc(N=Nc2ccc(S(=O)(=O)c3ccc(N=Nc4c(S(=O)(=O)O)cc5cc(S(=O)(=O)O)c(N=Nc6ccccc6)c(O)c5c4N)cc3)cc2)c(O)c1 [compound 2, reference compound]
A. 1.38

====

# Ames test: ratio of number of colonies to control per entry
# Test system: strains TA98
# Type: cell-based
# Measurement Conditions: 78 μg/plate, without S-9
// keep it numeric: no unit symbol after the value

Compound: Nc1ccc(N=Nc2ccc(Oc3cccc(Oc4ccc(N=Nc5c(S(=O)(=O)O)cc6cc(S(=O)(=O)O)c(N=Nc7ccccc7)c(O)c6c5N)cc4)c3)cc2)c(O)c1 [Ex. 1]
Obs Value: 0.86

Compound: Nc1ccc2c(O)c(N=Nc3ccccc3)c(S(=O)(=O)O)cc2c1N=Nc1ccc(Oc2ccc(Oc3ccc(N=Nc4ccc(O)cc4O)cc3)cc2)cc1 [Ex. 11]
Obs Value: 1.00

Compound: Nc1ccc(N=Nc2ccc(Oc3cccc(Oc4ccc(N=Nc5cc(S(=O)(=O)O)c6cc(S(=O)(=O)O)c(N=Nc7ccccc7)c(O)c6c5N)cc4)c3)cc2)c(O)c1 [Ex. 9]
Obs Value: 0.65

Compound: Nc1ccc(N=Nc2ccc(Oc3ccc(Oc4ccc(N=Nc5c(S(=O)(=O)O)cc6cc(S(=O)(=O)O)c(N=Nc7ccccc7)c(O)c6c5N)cc4)cc3)cc2)c(O)c1 [Ex. 4]
Obs Value: 0.79

Compound: Cc1ccccc1N=Nc1c(S(=O)(=O)O)cc2cc(S(=O)(=O)O)c(N=Nc3ccc(Oc4ccc(Oc5ccc(N=Nc6ccc(O)cc6O)cc5)cc4)cc3)c(N)c2c1O [Ex. 7]
Obs Value: 1.00

Compound: Cc1cc(-c2ccc(N=Nc3c(S(=O)(=O)O)cc4cc(S(=O)(=O)O)c(N=Nc5ccccc5)c(O)c4c3N)c(C)c2)ccc1N=Nc1ccc(N)cc1N [compound 1, reference compound]
Obs Value: 0.68

Compound: CCC(C)c1ccc(N=Nc2c(S(=O)(=O)O)cc3cc(S(=O)(=O)O)c(N=Nc4ccc(Oc5cccc(Oc6ccc(N=Nc7ccc(O)cc7O)cc6)c5)cc4)c(N)c3c2O)cc1 (stereo not drawn) [Ex. 3]
Obs Value: 0.86

Compound: Nc1ccc(N=Nc2ccc(S(=O)(=O)c3ccc(N=Nc4c(S(=O)(=O)O)cc5cc(S(=O)(=O)O)c(N=Nc6ccccc6)c(O)c5c4N)cc3)cc2)c(O)c1 [compound 2, reference compound]
Obs Value: 1.52

Compound: Cc1cc(-c2ccc(N=Nc3c(S(=O)(=O)O)cc4cc(S(=O)(=O)O)c(N=Nc5ccc(S(=O)(=O)O)cc5)c(O)c4c3N)c(C)c2)ccc1N=Nc1ccc(O)cc1O [compound 3, reference compound]
Obs Value: 1.00

Compound: CCC(C)c1ccc(N=Nc2c(S(=O)(=O)O)cc3cc(S(=O)(=O)O)c(N=Nc4ccc(Oc5ccc(Oc6ccc(N=Nc7ccc(O)cc7O)cc6)cc5)cc4)c(N)c3c2O)cc1 (stereo not drawn) [Ex. 6]
Obs Value: 1.04

Q. Identify Ames test: ratio of number of colonies to control associated with the compound Nc1c(N=Nc2ccc(Oc3ccc(Oc4ccc(N=Nc5ccc(O)cc5O)cc4)cc3)cc2)cc(S(=O)(=O)O)c2ccc(N=Nc3ccccc3)c(O)c12 [Ex. 10]
A. 1.01

Q. Entry Nc1ccc(N=Nc2ccc(Oc3ccc(Oc4ccc(N=Nc5c(S(=O)(=O)O)cc6cc(S(=O)(=O)O)c(N=Nc7ccc(S(=O)(=O)O)cc7)c(O)c6c5N)cc4)cc3)cc2)c(O)c1 [Ex. 8] needs its Ames test: ratio of number of colonies to control filled in; supply it.
A. 1.08

These measurements were taken from patent US5336763A.
